molecular target: BRG-1 (Homo sapiens, UniProt P51532); experiment: ATPase catalytic activity assay of BRG-1 (ADP-Glo); format: biochemical; conditions: ATPase catalytic activity, ADP-Glo; read-out: BRG1 IC50 (μM)*
Sequence (P51532 whole entry): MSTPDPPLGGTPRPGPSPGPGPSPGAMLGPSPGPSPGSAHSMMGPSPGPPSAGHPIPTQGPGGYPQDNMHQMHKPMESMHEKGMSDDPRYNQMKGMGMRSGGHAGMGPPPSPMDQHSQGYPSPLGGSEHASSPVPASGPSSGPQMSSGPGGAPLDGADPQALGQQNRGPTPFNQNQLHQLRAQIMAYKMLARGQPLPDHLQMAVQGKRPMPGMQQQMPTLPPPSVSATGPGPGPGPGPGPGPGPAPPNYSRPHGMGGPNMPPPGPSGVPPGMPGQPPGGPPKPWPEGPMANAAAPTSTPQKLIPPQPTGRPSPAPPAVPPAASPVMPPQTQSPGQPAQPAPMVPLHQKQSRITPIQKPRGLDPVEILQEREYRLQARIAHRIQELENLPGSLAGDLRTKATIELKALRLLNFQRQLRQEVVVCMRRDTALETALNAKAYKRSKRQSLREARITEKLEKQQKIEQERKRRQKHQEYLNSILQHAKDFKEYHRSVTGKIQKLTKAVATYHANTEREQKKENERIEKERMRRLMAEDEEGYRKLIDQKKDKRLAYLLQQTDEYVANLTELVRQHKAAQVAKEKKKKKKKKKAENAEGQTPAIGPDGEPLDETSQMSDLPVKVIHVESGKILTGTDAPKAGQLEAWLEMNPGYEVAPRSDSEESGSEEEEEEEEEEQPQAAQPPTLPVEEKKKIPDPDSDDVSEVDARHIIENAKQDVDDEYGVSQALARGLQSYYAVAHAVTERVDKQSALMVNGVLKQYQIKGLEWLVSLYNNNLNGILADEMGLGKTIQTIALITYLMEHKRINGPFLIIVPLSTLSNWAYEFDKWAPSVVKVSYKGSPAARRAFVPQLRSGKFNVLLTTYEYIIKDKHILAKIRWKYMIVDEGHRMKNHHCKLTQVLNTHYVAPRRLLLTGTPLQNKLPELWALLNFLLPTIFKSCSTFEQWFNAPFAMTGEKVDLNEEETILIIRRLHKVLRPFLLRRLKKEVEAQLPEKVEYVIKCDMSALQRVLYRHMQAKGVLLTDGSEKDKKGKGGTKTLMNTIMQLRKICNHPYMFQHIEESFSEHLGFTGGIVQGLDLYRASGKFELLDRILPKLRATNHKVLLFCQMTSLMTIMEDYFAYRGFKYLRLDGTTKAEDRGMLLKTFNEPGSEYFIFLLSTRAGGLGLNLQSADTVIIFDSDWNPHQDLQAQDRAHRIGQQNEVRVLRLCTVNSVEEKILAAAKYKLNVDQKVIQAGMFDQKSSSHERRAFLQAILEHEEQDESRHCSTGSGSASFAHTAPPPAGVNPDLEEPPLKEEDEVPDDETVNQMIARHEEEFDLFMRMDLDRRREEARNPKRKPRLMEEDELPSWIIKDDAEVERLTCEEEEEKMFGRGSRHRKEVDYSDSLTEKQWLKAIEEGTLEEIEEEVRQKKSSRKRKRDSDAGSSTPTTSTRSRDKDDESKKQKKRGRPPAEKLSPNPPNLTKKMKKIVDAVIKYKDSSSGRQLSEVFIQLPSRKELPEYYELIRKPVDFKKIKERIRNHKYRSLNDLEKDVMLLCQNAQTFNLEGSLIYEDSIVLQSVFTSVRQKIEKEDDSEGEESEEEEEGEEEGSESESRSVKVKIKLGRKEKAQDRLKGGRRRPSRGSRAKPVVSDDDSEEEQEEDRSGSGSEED
quantity: IC50

Below are worked cases with known answers.
C[C@@]1(C#N)COCc2ccc(C(=O)NCC(=O)Nc3nc(-c4cc(F)c5c(c4)OCO5)cs3)cc21 : < 0.1 µM
CC(C)S(=O)(=O)c1cccc(C(=O)NCC(=O)Nc2nc(-c3cccc(-c4cccc(CN)c4)c3)cs2)c1 : 1 to 5 µM
CC(C)(N)c1cccc(C(=O)NCC(=O)Nc2nc(-c3cccc(-c4ccncc4)c3)cs2)c1 : 1 to 5 µM
C[C@@H]1CN(c2cccc(-c3csc(NC(=O)CNC(=O)c4ccc5c(c4)[C@@](C)(C#N)CN5C)n3)c2)C[C@H](C)O1 : 1 to 5 µM
CCC(C)(CO)c1cccc(C(=O)NCC(=O)Nc2nc(-c3cccc(-c4ccncc4)c3)cs2)c1 (stereo not drawn) : 1 to 5 µM
C[C@@H]1CN(c2cccc(-c3csc(NC(=O)CNC(=O)c4ccc5c(c4)C(C)(C)COC5)n3)n2)C[C@H](C)O1 : 0.1 to 1 µM
C[C@@]1(F)COCc2ccc(C(=O)NCC(=O)Nc3nc(-c4cccc(C(F)F)c4)cs3)cc21 : 0.1 to 1 µM
C[C@@H]1CN(c2cccc(-c3csc(NC(=O)CNC(=O)c4ccc5c(c4)[C@](C)(F)COC5)n3)n2)C[C@H](C)O1 : < 0.1 µM
C[C@@H]1CN(c2cccc(-c3csc(NC(=O)CNC(=O)c4cnc5c(c4)[C@](C)(CO)CC5)n3)c2)C[C@H](C)O1 : > 5 µM
COc1cccc(-c2csc(NC(=O)CNC(=O)c3cc(F)c4c(c3)[C@@](C)(C#N)COC4)n2)c1 : > 5 µM

### Prompt Request the reported IC50 associated with `Cc1cc(-c2cccc(-c3csc(NC(=O)CNC(=O)c4cccc(S(=O)(=O)C(C)C)c4)n3)n2)ncn1`
### Response 0.1 to 1 µM

### Prompt Query `CC(C)N1CCOc2ccc(C(=O)NCC(=O)Nc3nc(-c4cccc(N5C[C@@H](C)O[C@@H](C)C5)n4)cs3)cc21` next
### Response > 5 µM

### Prompt Item: COc1cc(F)cc(-c2csc(NC(=O)C(C)NC(=O)c3ccc4c(c3)[C@](C)(F)COC4)n2)c1 (stereo in doubt)
### Response 0.1 to 1 µM

### Prompt Try `C[C@@H]1CN(c2cccc(-c3csc(NC(=O)CNC(=O)c4ccc5c(c4)[C@H](C)COC5)n3)n2)C[C@H](C)O1` next.
### Response 0.1 to 1 µM

### Prompt Also `CN1C(=O)CCc2ccc(-c3csc(NC(=O)CNC(=O)c4ccc5c(c4)[C@](C)(CO)CC5)n3)cc21` ?
### Response 1 to 5 µM

### Prompt Please answer likewise for `Cc1cc(-c2cccc(-c3csc(NC(=O)CNC(=O)c4ccc5c(c4)[C@](C)(CO)CCC5)n3)c2)cc(C)n1`
### Response 0.1 to 1 µM

### Prompt Please answer likewise for CCC(C)(O)c1cccc(C(=O)NCC(=O)Nc2nc(-c3cccc(-c4ccncc4)c3)cs2)c1 (single isomer, unassigned) [Compound 80]
### Response 0.1 to 1 µM

### Prompt Note, next up: `C[C@@]1(C#N)COCc2ccc(C(=O)NCC(=O)Nc3nc(-c4cccc([C@@]56CCOC[C@@H]5C6)c4)cs3)cc21`
### Response 0.1 to 1 µM

### Prompt How about this compound: COc1cccc(-c2csc(NC(=O)C3(NC(=O)c4ccc5c(c4)[C@](C)(C#N)COC5)CC3(F)F)n2)c1 (stereo partly drawn)
### Response 1 to 5 µM

### Prompt What do we get for `Cc1nccc(-c2cccc(-c3csc(NC(=O)CNC(=O)c4ccc5c(c4)[C@](C)(C#N)CC5)n3)n2)n1` ?
### Response < 0.1 µM

### Prompt Next compound: `C[C@@]1(F)COCc2ccc(C(=O)NCC(=O)Nc3nc(-c4cccc(C(F)F)n4)cs3)cc21`
### Response 0.1 to 1 µM

### Prompt Also `Cc1ccc(C(=O)NCC(=O)Nc2nc(-c3cccc(N4C[C@@H](C)O[C@@H](C)C4)c3)cs2)cc1C(C)(C)CO` ?
### Response 0.1 to 1 µM

### Prompt Now try `C[C@@H]1CN(c2cccc(-c3csc(NC(=O)CNC(=O)c4cc(C(C)(C)C)ccn4)n3)c2)C[C@H](C)O1` .
### Response 1 to 5 µM

### Prompt # repeat for C[C@@]1(C#N)COCc2ccc(C(=O)NCC(=O)Nc3nc(-c4cccc(C56CCOCC5C6)c4)cs3)cc21 (stereo partly drawn)
### Response 0.1 to 1 µM

### Prompt Request: C[C@@H]1CN(c2cccc(-c3csc(NC(=O)CNC(=O)c4ccc5c(c4)C(F)(C(F)F)CCO5)n3)n2)C[C@H](C)O1 (stereo in doubt) [Compound 272]
### Response < 0.1 µM

### Prompt Item: `Cc1nccc(-c2cccc(-c3csc(NC(=O)CNC(=O)c4ccc5c(c4)[C@](C)(CO)CCC5)n3)n2)n1`
### Response > 5 µM

### Prompt Continue with `COC1CN(c2cccc(-c3csc(NC(=O)CNC(=O)c4ccc5c(c4)[C@](C)(C#N)COC5)n3)c2)C1`
### Response < 0.1 µM
